All figures here come from ChEMBL document CHEMBL2406937.

Test: Plasma protein binding in mouse
Format: ADME, cell-free
Conditions: read-out: PPB (converted)
MEASURE: fraction unbound

> print(dat)
                              sample.smiles  obs.value
1  N#Cc1c(O)c2c(cc(Cl)n2-c2ccc(-c3ccsc3)cc2)[nH]c1=O    < 0.001
2  COc1cccc(-c2ccc(-n3c(Cl)cc4[nH]c(=O)c(-c5ccccc5)c(O)c43)cc2)c1O    < 0.001
3  CCc1ccc(-n2c(Cl)cc3[nH]c(=O)c(-c4ccccc4)c(O)c32)cc1      0.002
4  N#Cc1c(O)c2c(-c3ccc(-c4ccccc4O)cc3)csc2[nH]c1=O      0.013
5  COc1cccc(-c2ccc(-n3c(Cl)cc4[nH]c(=O)c(-c5cccc(C(=O)O)c5)c(O)c43)cc2)c1O    < 0.001
6  COc1cccc(-c2ccc(-n3c(Cl)cc4[nH]c(=O)c(C#N)c(O)c43)cc2)c1O    < 0.001
7  COc1cccc(-c2ccc(-n3ccc4[nH]c(=O)c(C#N)c(O)c43)cc2)c1O      0.007
8  Cc1ccc(-c2ccc(-n3c(Cl)cc4[nH]c(=O)c(C#N)c(O)c43)cc2)cc1    < 0.001

* * *

Assay: AUC in mouse at 30 mg/kg, po
Assay type: ADME, organism-based, Plasma
Parameters: dose 30 mg/kg, route oral
Conditions: blood
MEASURE: AUC (ng·h/mL)

> print(dat)
                              sample.smiles  obs.value
1  N#Cc1c(O)c2c(ccn2-c2ccc(-c3ccccc3O)cc2)[nH]c1=O       1490

* * *

Test: Dissociation constant, pKa of the compound
Type: physicochemical
MEASURE: pKa

> print(dat)
                              sample.smiles  measure  qualifying.sign  obs.value
1  N#Cc1c(O)c2c(cc(Cl)n2-c2ccc(-c3ccsc3)cc2)[nH]c1=O      pKa                <          2
2  CCc1ccc(-n2c(Cl)cc3[nH]c(=O)c(-c4ccccc4)c(O)c32)cc1      pKa                =          6

* * *

Test: Oral bioavailability in mouse at 5 mg/kg
Format: ADME, organism-based
Conditions: in vivo
Parameter threshold = 3%. Response is True when bioavailability meets or exceeds it, else False.

> print(dat)
                              sample.smiles  classification
1  COc1cccc(-c2ccc(-n3c(Cl)cc4[nH]c(=O)c(-c5cccc(C(=O)O)c5)c(O)c43)cc2)c1O           False
2  CCc1ccc(-n2c(Cl)cc3[nH]c(=O)c(-c4ccccc4)c(O)c32)cc1            True
3  N#Cc1c(O)c2c(cc(Cl)n2-c2ccc(-c3ccsc3)cc2)[nH]c1=O            True
4  COc1cccc(-c2ccc(-n3ccc4[nH]c(=O)c(C#N)c(O)c43)cc2)c1O           False
5  COc1cccc(-c2ccc(-n3c(Cl)cc4[nH]c(=O)c(-c5ccccc5)c(O)c43)cc2)c1O            True
6  N#Cc1c(O)c2c(-c3ccc(-c4ccccc4O)cc3)csc2[nH]c1=O           False
7  Cc1ccc(-c2ccc(-n3c(Cl)cc4[nH]c(=O)c(C#N)c(O)c43)cc2)cc1            True
